Recorded mass density for the following molecules
DETAILS: 298.15 K; 60000 kPa; Liquid; Vibrating tube method
# value in kg/m3; strip the unit string

c1ccsc1 ... 1101.89
Cc1cccs1 ... 1056.23
Cc1ccc(C)s1 ... 1021.01

From here, focus on the item given below.
Task: Returns the measured mass density for the input molecule. Input: Cc1ccsc1
Result: 1056.65

###

Recorded mass density by entry
DETAILS: 318.15 K; 7000 kPa; Liquid; Vibrating tube method
The response must be a number in kg/m3 with no trailing unit.

Cc1ccc(C)s1 ... 966
Cc1ccsc1 ... 1000.93
c1ccsc1 ... 1041.36

Task: What measured mass density goes with Cc1cccs1 ?
Result: 999.4

###

DETAILS: 303.15 K; 5000 kPa; Liquid; Vibrating tube method
PARAMETER_MEASURED: mass density (kg/m3)
Use kg/m3 as the unit, but write only the number.

// known answers, use as guide
Cc1ccsc1 ... 1014.81
Cc1ccc(C)s1 ... 979.23
c1ccsc1 ... 1057.07

Turning now to a further record.
Task: Give the measured mass density of Cc1cccs1 .
Result: 1013.57

###

A collection of compounds and their measured mass density
DETAILS: 298.15 K; 5000 kPa; Liquid; Vibrating tube method
Numbers after ± are expanded uncertainties.
Please state the value followed by its unit.

Example compounds with recorded mass density:
Cc1ccsc1 ... 1019.98 ± 0.51 kg/m3
c1ccsc1 ... 1062.91 ± 0.5 kg/m3
Cc1ccc(C)s1 ... 984.2 ± 0.5 kg/m3

Task: Field request: mass density | item: Cc1cccs1
Result: 1018.85 ± 0.52 kg/m3

###

Each item that follows carries a reported mass density.
DETAILS: 288.15 K; 65000 kPa; Liquid; Vibrating tube method
± gives the expanded uncertainty stated by the source.

Use the examples below as a reference point.
Cc1ccc(C)s1 ... 1032.06 ± 0.51 kg/m3
c1ccsc1 ... 1114.44 ± 0.6 kg/m3
Cc1cccs1 ... 1067.79 ± 0.6 kg/m3

Alright, here's another molecule for you.
Task: Quick check: mass density of Cc1ccsc1 ?
Result: 1068.01 ± 0.56 kg/m3

###

Reported mass density is given for each of the following molecules.
DETAILS: 323.15 K; 7000 kPa; Liquid; Vibrating tube method
The response must be a number in kg/m3 with no trailing unit.

Solved cases below.
c1ccsc1 ... 1035.52
Cc1cccs1 ... 994.11
Cc1ccc(C)s1 ... 961.09

The record that follows has no mass density shown yet.
Task: Given the entry Cc1ccsc1 , report its measured mass density.
Result: 995.72

###

DETAILS: 318.15 K; 2000 kPa; Liquid; Vibrating tube method
PARAMETER_MEASURED: mass density (kg/m3)
Provide only the numeric value, understood in kg/m3.

c1ccsc1 ... 1036.54
Cc1ccsc1 ... 996.44
Cc1cccs1 ... 994.81

API: the following record is the query input.
Task: Any idea what its mass density is? The compound is Cc1ccc(C)s1
Result: 961.52

###

DETAILS: 308.15 K; 5000 kPa; Liquid; Vibrating tube method
± gives the expanded uncertainty stated by the source.
PARAMETER_MEASURED: mass density

Examples from the recorded data:
Cc1cccs1 ... 1008.23 ± 0.52 kg/m3
Cc1ccsc1 ... 1009.61 ± 0.51 kg/m3
c1ccsc1 ... 1051.21 ± 0.5 kg/m3

Next:
Task: // query mass density value for entry Cc1ccc(C)s1
Result: 974.22 ± 0.5 kg/m3
